Attribution: paper PMC9579956

Biological target: Mycobacterium thermoresistible (Mtr) LpqY (Mycolicibacterium thermoresistibile)
Sequence (G7CES0 29-471): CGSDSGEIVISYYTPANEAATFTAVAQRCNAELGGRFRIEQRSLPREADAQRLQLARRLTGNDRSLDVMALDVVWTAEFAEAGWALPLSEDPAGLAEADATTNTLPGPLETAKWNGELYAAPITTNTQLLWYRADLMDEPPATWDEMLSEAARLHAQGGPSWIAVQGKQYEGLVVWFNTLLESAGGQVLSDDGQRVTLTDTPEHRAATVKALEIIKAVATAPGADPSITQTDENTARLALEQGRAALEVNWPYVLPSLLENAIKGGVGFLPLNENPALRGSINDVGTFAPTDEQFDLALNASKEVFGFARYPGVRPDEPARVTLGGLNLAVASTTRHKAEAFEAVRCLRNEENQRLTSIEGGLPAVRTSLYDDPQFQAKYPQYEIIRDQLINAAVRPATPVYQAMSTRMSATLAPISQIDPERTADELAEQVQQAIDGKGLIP
Assay type: binding
Details: single dose MST screen against LpqY
Dear colleague, classification is by Pathogen Box screen signal/noise ratio, with ranges listed here: class 1: < 0.9; class 2: ≥ 0.9 and < 2; class 3: ≥ 2

>  <Molecule>
CCCn1c(CNc2ccccc2O)nc2ccccc21 [MMV676445]

>  <Answer Label>
class 1

$$$$
>  <Molecule>
CC1(C)Cc2c(c(N3CCOCC3)nc3snc(Br)c23)CO1 [MMV687794]

>  <Answer Label>
class 1

$$$$
>  <Molecule>
CCc1cc(=O)n(C)c(SC(C)C(=O)Nc2ccc(F)cc2)n1 (stereo not shown) [MMV688980]

>  <Answer Label>
class 2

$$$$
>  <Molecule>
CN(C)c1cc(NC(=O)Nc2ccccc2)c2ccccc2n1 [MMV006901]

>  <Answer Label>
class 2

$$$$
>  <Molecule>
CCC(Sc1nc2ccccc2o1)C(=O)Nc1nccs1 (stereo not shown) [MMV676383]

>  <Answer Label>
class 1

$$$$
>  <Molecule>
CCn1cnc2c(Nc3cc(F)cc(F)c3)nc(C#N)nc21 [MMV676881]

>  <Answer Label>
class 1

$$$$
>  <Molecule>
COc1ccc(C2=NN(C3CCCCCC3)C(=O)C2(C)C)cc1OCc1ccccn1 [MMV688360]

>  <Answer Label>
class 2

$$$$
>  <Molecule>
Cc1cc(Cl)c(S(=O)(=O)N2CCCC2)cc1OCC(=O)NC1CCCCC1 [MMV006833]

>  <Answer Label>
class 2

$$$$
>  <Molecule>
CNc1cc(C)nc(C2CN(C(=O)c3n[nH]c4ccccc34)CCO2)c1 (stereo not shown) [MMV689709]

>  <Answer Label>
class 3

$$$$
>  <Molecule>
O=C(Nc1c(O)cccc1-c1nc2c(C(=O)O)cccc2o1)c1cc(-c2ccccc2)on1 [MMV676008]

>  <Answer Label>
class 2

$$$$
>  <Molecule>
CCOc1ccc(OCC(=O)Nc2cc(C)cc(C)c2)cc1 [MMV676470]

>  <Answer Label>
class 1

$$$$
>  <Molecule>
CN(C(=O)c1cc2c(-c3cncnc3)cccc2[nH]1)c1ccccc1 [MMV024443]

>  <Answer Label>
class 1

$$$$
>  <Molecule>
CO[C@@H]1CN(c2ccc(C#CC3(O)CN4CCC3CC4)c(Cc3ccccc3)n2)C[C@H]1O (stereo partly shown) [MMV688415]

>  <Answer Label>
class 2

$$$$
>  <Molecule>
Cc1noc(C)c1C(=O)N1CCCC(c2[nH]c3c(C)cccc3c2-c2ccncc2)C1 (stereo not shown) [MMV020623]

>  <Answer Label>
class 3

$$$$
>  <Molecule>
O=C1N(Cc2cc3ccccc3s2)CC2CN(Cc3ccccc3)CCN12 (stereo not shown) [MMV084603]

>  <Answer Label>
class 2

$$$$
>  <Molecule>
CC[C@H](CO)NCCN[C@H](CC)CO [MMV687801]

>  <Answer Label>
class 2

$$$$
>  <Molecule>
FC(F)(F)c1cc(NCCc2ccccc2)nc(-c2ccccn2)n1 [MMV659010]

>  <Answer Label>
class 2

$$$$
>  <Molecule>
COc1cccn2c(C(=O)N3CCCCC3)c(C(F)(F)F)nc12 [MMV1110498]

>  <Answer Label>
class 2

$$$$
>  <Molecule>
CCOC(=O)c1c(NC(=O)c2c(F)c(F)c(F)c(F)c2F)sc(C(N)=O)c1C [MMV153413]

>  <Answer Label>
class 2

$$$$
>  <Molecule>
CCCCOC(=O)Nc1cc2nc(C3CCCCC3)[nH]c2cc1N1CCCC1 [MMV687730]

>  <Answer Label>
class 2

$$$$
>  <Molecule>
CC(C)=CCC/C(C)=C\CNCCNC1C2CC3CC(C2)CC1C3 (stereo not shown) [MMV687273]

>  <Answer Label>
class 2

$$$$
>  <Molecule>
Cc1ccc(NC(=O)CC2COc3ccccc3O2)cc1Cl (stereo not shown) [MMV676431]

>  <Answer Label>
class 3

$$$$
>  <Molecule>
COc1ccc(Oc2ccc([C@@H](C)N(C)c3ncc4c(N)nc(N)nc4n3)cc2)cc1 [MMV690102]

>  <Answer Label>
class 3

$$$$
>  <Molecule>
c1ccc(Oc2ccc(-c3cc(CN4CCOCC4)[nH]n3)cc2)cc1 [MMV676161]

>  <Answer Label>
class 2

$$$$
>  <Molecule>
NC(=O)c1cc(-c2ccsc2)ccc1OCCOc1ccccc1 [MMV687138]

>  <Answer Label>
class 2

$$$$
>  <Molecule>
O=C(c1ccc(F)cc1)N(CCNc1ccccc1)c1ccccc1 [MMV676204]

>  <Answer Label>
class 1

$$$$
>  <Molecule>
CCOC(=O)NC(=O)c1ccsc1NC(=O)c1nc2ccccc2s1 [MMV090930, TCA1, reference compound]

>  <Answer Label>
class 3

$$$$
>  <Molecule>
CN1CCN(S(=O)(=O)c2ccc(-c3ccc4c(Nc5ncc(Cl)cn5)ccnc4c3)cc2)CC1 [MMV688283]

>  <Answer Label>
class 2

$$$$
>  <Molecule>
Cc1nc(-c2ccccn2)nc(NCCc2ccc(S(C)(=O)=O)cc2)c1Cl [MMV658993]

>  <Answer Label>
class 1

$$$$
>  <Molecule>
c1cncc(NCc2ccc(-c3cc4ccncc4cc3OC3CCNCC3)s2)c1 [MMV023969]

>  <Answer Label>
class 2

$$$$
>  <Molecule>
Cc1nn2c(O)c3c(nc2c1-c1ccc(F)cc1)CCCC3 [MMV099637]

>  <Answer Label>
class 3

$$$$
>  <Molecule>
Cc1ccc(NC(=O)c2nc[nH]c2C(=O)Nc2nc3ccccc3[nH]2)c(C)c1 [MMV011903]

>  <Answer Label>
class 2

$$$$
>  <Molecule>
CC(Oc1cccc(Cl)c1)C(=O)Nc1ccc2oc(-c3ccncc3)nc2c1 (stereo not shown) [MMV688472]

>  <Answer Label>
class 1

$$$$
>  <Molecule>
Cc1ccc(S(=O)(=O)N2CCN(C(=O)c3cc(-c4ccccc4)[nH]n3)CC2)cc1 [MMV019742]

>  <Answer Label>
class 1

$$$$
